Values from patent US20230227437A1

log10 IC50 by entry:
test_target: human IL-17A (hIL-17A) (Homo sapiens, UniProt Q16552)
Sequence (Q16552 24-155): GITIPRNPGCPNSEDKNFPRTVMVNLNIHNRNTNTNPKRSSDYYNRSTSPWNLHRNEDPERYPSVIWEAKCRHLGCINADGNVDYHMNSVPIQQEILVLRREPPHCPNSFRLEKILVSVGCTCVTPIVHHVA
experiment: IL-17A enzyme-linked immunosorbent assay (competitive ELISA, receptor-ligand binding)
Use the decimal logarithm of IC50 (nM).

Use these answered entries as a reference point.
CCc1nonc1C(=O)N[C@H](C(=O)Nc1ccc(-c2c(C)n[nH]c2C)cc1)C1c2c(F)ccc(F)c2OCC12CC2 (some centres unmarked) [Compound 78]	2.99
COC(=O)N[C@H](C(=O)Nc1ccc(-c2c(C)n[nH]c2C)cc1)C1c2cc(F)c(F)cc2OCC12CC2 (some centres unmarked) [Compound 107]	1.71
Cc1n[nH]c(C)c1-c1ccc(NC(=O)[C@@H](NC(=O)c2ccnn2C(C)C)C2c3cc(F)ccc3OCC23CC3)cn1 (some centres unmarked) [Compound 20]	1.79
Cc1n[nH]c(C)c1-c1ccc(NC(=O)[C@@H](NC(=O)OC2CC2)C2c3cc(F)c(F)cc3OCC23CC3)cc1 (some centres unmarked) [Compound 106]	1.82

Form field: reported log10 IC50 of Cc1n[nH]c(C)c1-c1ccc(NC(=O)[C@@H](NC(=O)c2ccnn2C)C2c3ccc(F)cc3OCC23CC3)cc1 (some centres unmarked) [Compound 17]
1.56

====

test_target: human IL-17A (hIL-17A) (Homo sapiens)
experiment: IL-17A enzyme-linked immunosorbent assay (competitive ELISA, receptor-ligand binding)
endpoint_label: IC50 (nM)
Record the value in nM, omitting the unit from your answer.

Use these answered entries as a reference point.
Cc1n[nH]c(C)c1-c1ccc(NC(=O)[C@@H](NC(=O)c2ccnn2C(C)C)C2c3cc(F)c(F)cc3OCC23CC3)cc1 (stereo partly shown) [Compound 48]	135
CCc1nonc1C(=O)N[C@H](C(=O)Nc1ccc(-c2c(C)n[nH]c2C)cc1)C1c2cc(F)cc(F)c2OCC12CC2 (stereo partly shown) [Compound 77]	320
Cc1n[nH]c(C)c1-c1ccc(NC(=O)[C@@H](NC(=O)c2conc2C2CC2)C2c3ccc(F)cc3OCC23CC3)cn1 (stereo partly shown) [Compound 99]	96

API: the following record is the query input.
Fill in the recorded IC50 for this compound, with human IL-17A (hIL-17A) (Homo sapiens) as test system: Cc1n[nH]c(C)c1-c1ccc(NC(=O)[C@@H](NC(=O)c2ccnn2C)C2c3cc(F)ccc3OCC23CC3)cc1 (stereo partly shown) [Compound 4]
50

====

ka by entry:
test_target: hIL-17A protein (Homo sapiens)
Sequence (Q16552 24-155): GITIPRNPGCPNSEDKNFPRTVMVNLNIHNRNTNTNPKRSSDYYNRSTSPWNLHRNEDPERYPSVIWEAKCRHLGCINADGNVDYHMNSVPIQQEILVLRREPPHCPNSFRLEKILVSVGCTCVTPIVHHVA
experiment: Binding to hIL-17A protein through surface plasmon resonance (SPR, Biacore 8K)
measurement_context: SPR
Record the value in M⁻¹ s⁻¹, omitting the unit from your answer.

Use these answered entries as a reference point.
Cc1nonc1C(=O)N[C@H](C(=O)Nc1ccc(-c2c(C)n[nH]c2C)cc1)C1c2ccc(F)cc2OCC12CC2 (stereo partly shown)	12400
Cc1n[nH]c(C)c1-c1ncc(NC(=O)[C@@H](NC(=O)c2ccnn2C(C)C)C2c3cc(F)c(F)cc3OCC23CC3)cc1F (stereo partly shown)	20400
CCc1nonc1C(=O)N[C@H](C(=O)Nc1ccc(-c2c(C)n[nH]c2C)nc1)C1c2ccc(F)cc2OCC12CC2 (stereo partly shown)	21300

API: the following record is the query input.
Form field: reported ka of CCc1nonc1C(=O)N[C@H](C(=O)Nc1ccc(-c2c(C)n[nH]c2C)cc1)C1c2cc(F)c(F)cc2OCC12CC2 (stereo partly shown)
14200
